// reported EC50 for each item listed
# TARGET_OF_ASSAY: mutant integrin CD11bE320A/CD18 (Homo sapiens, UniProt P11215, E336A)
# Construct: expressed in transfected cells; host or cells: K562 (ATCC)
# Sequence (P11215 17-1152 E336A): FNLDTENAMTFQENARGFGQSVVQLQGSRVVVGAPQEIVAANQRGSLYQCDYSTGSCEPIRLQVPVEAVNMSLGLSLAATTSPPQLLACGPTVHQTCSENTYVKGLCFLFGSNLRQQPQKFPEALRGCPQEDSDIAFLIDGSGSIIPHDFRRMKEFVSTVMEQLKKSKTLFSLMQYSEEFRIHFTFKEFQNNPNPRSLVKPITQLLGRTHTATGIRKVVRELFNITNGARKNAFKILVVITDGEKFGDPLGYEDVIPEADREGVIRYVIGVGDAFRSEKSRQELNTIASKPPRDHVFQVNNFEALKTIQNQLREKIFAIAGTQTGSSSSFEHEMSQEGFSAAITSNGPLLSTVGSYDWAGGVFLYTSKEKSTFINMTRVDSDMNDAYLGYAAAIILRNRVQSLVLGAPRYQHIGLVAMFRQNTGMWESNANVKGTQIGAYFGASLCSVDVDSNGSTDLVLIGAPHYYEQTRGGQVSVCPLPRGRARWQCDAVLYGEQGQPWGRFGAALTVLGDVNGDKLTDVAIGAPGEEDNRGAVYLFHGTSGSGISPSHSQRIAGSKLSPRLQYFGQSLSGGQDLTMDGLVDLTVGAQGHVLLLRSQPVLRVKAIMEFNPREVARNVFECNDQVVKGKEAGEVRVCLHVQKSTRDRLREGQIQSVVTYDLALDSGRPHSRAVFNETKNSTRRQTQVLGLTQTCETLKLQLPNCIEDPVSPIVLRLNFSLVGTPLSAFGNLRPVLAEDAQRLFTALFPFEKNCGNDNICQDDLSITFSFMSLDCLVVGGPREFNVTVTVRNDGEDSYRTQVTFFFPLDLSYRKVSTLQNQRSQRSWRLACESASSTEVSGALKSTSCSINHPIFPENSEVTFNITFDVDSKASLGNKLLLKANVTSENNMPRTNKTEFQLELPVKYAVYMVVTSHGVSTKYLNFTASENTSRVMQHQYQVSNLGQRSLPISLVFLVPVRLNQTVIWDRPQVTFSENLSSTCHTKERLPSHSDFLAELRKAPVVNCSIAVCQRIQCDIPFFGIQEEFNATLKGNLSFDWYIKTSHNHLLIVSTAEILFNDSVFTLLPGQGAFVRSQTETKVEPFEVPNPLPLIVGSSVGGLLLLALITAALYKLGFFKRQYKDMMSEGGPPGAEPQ
# Sequence (P05107 23-769 partner): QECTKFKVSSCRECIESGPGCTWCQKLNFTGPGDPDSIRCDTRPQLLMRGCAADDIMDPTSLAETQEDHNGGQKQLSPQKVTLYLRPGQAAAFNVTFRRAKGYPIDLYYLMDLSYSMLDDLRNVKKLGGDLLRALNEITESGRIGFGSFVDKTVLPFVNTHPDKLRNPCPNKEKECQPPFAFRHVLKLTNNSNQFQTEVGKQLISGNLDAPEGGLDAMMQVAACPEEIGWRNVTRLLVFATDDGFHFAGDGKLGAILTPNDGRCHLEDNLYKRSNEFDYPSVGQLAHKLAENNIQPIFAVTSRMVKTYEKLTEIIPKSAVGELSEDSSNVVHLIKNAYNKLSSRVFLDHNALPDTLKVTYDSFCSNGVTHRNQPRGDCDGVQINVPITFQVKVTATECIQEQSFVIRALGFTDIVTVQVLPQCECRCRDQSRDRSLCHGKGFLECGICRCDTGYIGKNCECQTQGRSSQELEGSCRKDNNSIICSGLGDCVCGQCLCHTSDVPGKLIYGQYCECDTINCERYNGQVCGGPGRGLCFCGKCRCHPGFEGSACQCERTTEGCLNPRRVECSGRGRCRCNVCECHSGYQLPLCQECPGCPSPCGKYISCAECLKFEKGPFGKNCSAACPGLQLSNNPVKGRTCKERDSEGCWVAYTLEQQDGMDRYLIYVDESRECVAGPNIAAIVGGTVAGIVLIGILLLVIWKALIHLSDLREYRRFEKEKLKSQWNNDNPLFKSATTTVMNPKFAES
# PROTOCOL_SUMMARY: HTS cell adhesion assay, K562 E320A cells on immobilized fibrinogen
# Format: cell-based
# MEASUREMENT_PARAMETERS: Table 3, adhesion to fibrinogen, five point dose-response
METRIC_NAME: EC50 (µM)

COMPOUND | EXPERIMENTAL_VALUE
N#Cc1sc2nc(-c3ccccc3)cc(-c3ccco3)c2c1N | 5.16
Cc1ccc(CN2C(=O)C3CCCN3c3ccc(S(=O)(=O)N4CCOCC4)cc32)cc1 (stereo not drawn) | 10.7
Cc1ccc(C)c(N(CC(=O)N/N=C/c2ccc(-c3ccc([N+](=O)[O-])cc3)o2)S(=O)(=O)c2ccccc2)c1 | 16.9

###

# TARGET_OF_ASSAY: mutant integrin CD11bE320A/CD18 (Homo sapiens, UniProt P11215, E336A)
# Construct: expressed in transfected cells; host or cells: K562 (ATCC)
# PROTOCOL_SUMMARY: HTS cell adhesion assay, K562 E320A cells on immobilized fibrinogen
# Type: cell-based
# MEASUREMENT_PARAMETERS: Table 3, adhesion to fibrinogen, five point dose-response

COMPOUND | EC50 (µM)
O=C(Nc1nc2c(s1)CCCC2)c1cc(-c2ccncc2)nc2ccccc12 | 12.6
COc1ccccc1N1CSC2=C(C#N)C(c3ccc(SC)cc3)CC(=O)N2C1 (stereo not shown) | 11.4
COc1cc(/C=C2\SC(N)=NC2=O)ccc1OCC(=O)Nc1ccc(C)cc1 | 3.3
CC(=O)c1cccc(NC(=O)Nc2cc3sccc3n2C)c1 | 18.7
CCN(CC)c1ccc(C(=O)OCC(=O)Nc2cc3oc4ccccc4c3cc2OC)cc1 | 72.4
N=C1/C(=C\c2ccc(-c3cccc(Cl)c3)o2)C(=O)N=C2SC=C(c3ccccc3)N12 | 3.07
CCOC(=O)C1CCN(S(=O)(=O)c2ccc(-c3nc4ccccc4s3)s2)CC1 | 12.6
O=C(Cc1coc2cc3c(cc12)CCC3)OCc1cc(=O)n2c(n1)sc1ccccc12 | 9.02
O=C1NN(c2ccc(Cl)c(Cl)c2)C(=O)/C1=C/c1cccc(OC(=O)c2cccs2)c1 | 7.82
CCOC(=O)c1sc(NC(=O)CSc2nnnn2-c2ccccc2)c(C(=O)OCC)c1C | 18

###

# TARGET_OF_ASSAY: mutant integrin CD11bE320A/CD18 (Homo sapiens, UniProt P11215, E336A)
# Construct: expressed in transfected cells; host or cells: K562 (ATCC)
# PROTOCOL_SUMMARY: HTS cell adhesion assay, K562 E320A cells on immobilized fibrinogen
# Format: cell-based
# MEASUREMENT_PARAMETERS: Table 3, adhesion to fibrinogen, five point dose-response
// reported log10 of EC50 for each item listed
METRIC_NAME: log10 of EC50 (log10 of the value in µM)

COMPOUND | log10 of EC50
CC(=O)c1ccc(N2C(=O)C3C(C2=O)C(C(=O)c2ccc(Cl)cc2)N2CCCC32)cc1 (centres unmarked) | 1.16
O=C1c2cccc(OCC(=O)N3N=C(c4cccs4)CC3c3ccc(F)cc3)c2CCN1Cc1cccnc1 (centres unmarked) | 0.95
COc1cc2c(cc1NC(=O)c1cc(-c3ccncc3)nc3ccccc13)oc1ccccc12 | -0.36
CC1=NN(c2nc(-c3ccc(C)cc3)cs2)C(=O)C1N=Nc1ccc2ccccc2c1 (centres unmarked) | 1.13
Cc1cc(OCC(=O)Nc2ccc(N3CCN(C(=O)c4ccco4)CC3)cc2)cc(C)c1Cl | 0.53
CC(=O)Nc1ccc(-c2nnc(SCC(=O)n3c4c(c5ccccc53)CCCC4)n2C)cc1 | 0.38
Cc1ccccc1Cn1c(=O)n(CC2CCC(C(=O)NCCc3ccccc3)CC2)c(=O)c2ccccc21 (centres unmarked) | 0.84
Cc1cc(C)cc(NC(=O)Cn2c(=O)oc3cc(S(=O)(=O)N4CCC(C)CC4)ccc32)c1 | 0.92
Cc1cc(C)cc(-n2c3nc4ccccc4nc3c3c(=O)n(Cc4ccco4)cnc32)c1 | 0.94
Cc1ccc2sc(-c3ccc(NC(=O)c4cc(-n5cnnc5)ccc4Cl)cc3)nc2c1 | 0.91
CCOC(=O)N1CCC(NC(=O)c2ccc3c(c2)sc2nc(-c4ccc(OC)cc4)cn23)CC1 | 0.74
CCc1nnc(NC(=O)c2sc3nc4c(cc3c2N)CCCCCC4)s1 | 0.73
COc1ccc(OC)c(NS(=O)(=O)Cc2ccccc2)c1 | 1.20
Cc1nc2c(c(=O)n1CCC1=CCCCC1)c1nc3ccccc3nc1n2/N=C/c1ccco1 | 1.05
O=C(O)CCN1C(=O)/C(=C/c2ccc(-c3nc4ccccc4s3)o2)SC1=S | 0.83
CC(C)CNC(=O)c1c(N)n(/N=C/c2ccccn2)c2nc3ccccc3nc12 | 0.79
O=C(CSc1nnc2c3ccccc3c3ccccc3c2n1)Nc1ccccc1F | 1.05

###

# TARGET_OF_ASSAY: integrin CD11c/CD18 (Homo sapiens)
# Construct: expressed in transfected cells; host or cells: K562 (ATCC)
# Sequence (P20702 with tags, fused parts or gaps, one chain of several): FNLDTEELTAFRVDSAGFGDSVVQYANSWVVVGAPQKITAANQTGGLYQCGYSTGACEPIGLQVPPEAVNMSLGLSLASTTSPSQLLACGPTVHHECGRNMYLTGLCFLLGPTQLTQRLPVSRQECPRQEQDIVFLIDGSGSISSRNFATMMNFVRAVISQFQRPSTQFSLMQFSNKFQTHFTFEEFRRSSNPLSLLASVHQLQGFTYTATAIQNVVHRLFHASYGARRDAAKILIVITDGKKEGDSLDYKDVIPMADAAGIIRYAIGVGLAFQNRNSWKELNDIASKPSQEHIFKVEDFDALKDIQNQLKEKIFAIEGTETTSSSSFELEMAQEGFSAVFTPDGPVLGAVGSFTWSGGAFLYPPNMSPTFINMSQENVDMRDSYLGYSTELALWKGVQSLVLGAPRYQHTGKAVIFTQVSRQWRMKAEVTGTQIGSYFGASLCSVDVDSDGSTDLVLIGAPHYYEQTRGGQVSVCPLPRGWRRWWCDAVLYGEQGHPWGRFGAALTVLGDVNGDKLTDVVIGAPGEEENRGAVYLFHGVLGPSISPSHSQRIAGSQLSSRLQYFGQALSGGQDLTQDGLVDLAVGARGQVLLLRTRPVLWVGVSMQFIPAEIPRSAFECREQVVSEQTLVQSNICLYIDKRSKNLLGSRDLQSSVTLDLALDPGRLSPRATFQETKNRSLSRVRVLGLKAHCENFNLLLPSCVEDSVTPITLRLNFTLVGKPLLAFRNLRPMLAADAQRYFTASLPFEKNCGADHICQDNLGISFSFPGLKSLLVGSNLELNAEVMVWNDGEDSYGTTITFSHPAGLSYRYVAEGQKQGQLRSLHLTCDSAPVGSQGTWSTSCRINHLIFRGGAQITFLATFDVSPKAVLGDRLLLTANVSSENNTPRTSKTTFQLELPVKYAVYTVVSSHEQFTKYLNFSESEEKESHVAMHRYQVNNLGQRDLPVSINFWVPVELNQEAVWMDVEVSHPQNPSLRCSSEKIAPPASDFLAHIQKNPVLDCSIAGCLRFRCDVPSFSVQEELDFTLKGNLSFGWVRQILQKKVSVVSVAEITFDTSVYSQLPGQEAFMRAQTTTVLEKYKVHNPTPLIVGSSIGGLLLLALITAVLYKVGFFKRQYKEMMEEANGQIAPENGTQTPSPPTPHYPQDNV
# PROTOCOL_SUMMARY: HTS cell adhesion assay, K562 CD11c/CD18 cells on immobilized fibrinogen
# Type: cell-based
Threshold 3000 nM. EC50 below it: true. EC50 at it or above: false.

COMPOUND | CAT
COc1cc(NC(=O)Cn2c(=O)n(-c3cccc(C)c3)c(=O)c3c(C)c(C)sc32)cc(OC)c1 | false
Cc1ccc(C)c(NC(=S)NC(NC(=O)Cc2cccc3ccccc23)C(Cl)(Cl)Cl)c1 (stereo not drawn) | false
Cc1cc(OCC(=O)Nc2ccc(N3CCN(C(=O)c4ccco4)CC3)cc2)cc(C)c1Cl | true
Cc1ccccc1Cn1c(=O)n(CC2CCC(C(=O)NCCc3ccccc3)CC2)c(=O)c2ccccc21 (stereo not drawn) | true
CCCCn1c(SCC(=O)c2ccc(OC)cc2OC)nc2cc(S(N)(=O)=O)ccc21 | false
C/C(=N/NC(=O)c1cc2ccccc2cc1O)C1C(=O)c2ccccc2C1=O | true
COc1ccc2nc(SCC(=O)Nc3ccc4sc(C)nc4c3)c(C#N)cc2c1 | true
Cc1ccc2sc(-c3ccc(NC(=O)c4cc(-n5cnnc5)ccc4Cl)cc3)nc2c1 | true
N=C1/C(=C\c2ccc(-c3cc(Cl)cc(Cl)c3)o2)C(=O)N=C2SC=C(c3ccccc3)N12 | true
O=C(N/N=C/c1ccc(-c2ccc(S(=O)(=O)Nc3ncccn3)cc2)o1)c1cc2ccccc2cc1O | true
Cc1ccc2nc(-c3ccc(NC(=O)COC(=O)c4cncc(Br)c4)cc3)sc2c1 | false
CCOC(=O)c1c(NC(=O)c2cc(-c3ccc(Cl)s3)nc3ccccc23)sc(C(N)=O)c1C | true

###

# TARGET_OF_ASSAY: mutant integrin CD11bE320A/CD18 (Homo sapiens, UniProt P11215, E336A)
# Construct: expressed in transfected cells; host or cells: K562 (ATCC)
# PROTOCOL_SUMMARY: HTS cell adhesion assay, K562 E320A cells on immobilized fibrinogen
# Assay type: cell-based
# MEASUREMENT_PARAMETERS: Table 3, adhesion to fibrinogen, five point dose-response
# Protocol: K562 cells stably expressing CD11c/CD18 (K562 CD11c/CD18) were generated similarly. […] K562 cells stably transfected with mutant integrin CD11bE320A/CD18 (K562 E320A) were generated according to literature protocols. […] The cells were fixed with 37% formaldehyde in a small volume and the plates were kept inverted for 1 h. […] Next, the cells were fluorescently labeled with DAPI (0.5 μM final in TBS with 0.1% Triton X-100) and the quantitated with “Opera High Content Screening System” (Perkin Elmer). […]
// reported log10(EC50) for each item listed
METRIC_NAME: log10(EC50) (log10 of the value in µM)

COMPOUND | log10(EC50)
Cc1ccsc1/C=C/C1=Cc2c(sc(NC(=O)CSc3nnc(N)[nH]3)c2C#N)C(C)(C)C1 [Compound 2083967] | 0.52
CCOc1ccc(NC(=O)c2ccc(CNc3c(NC4CCCCC4)c(=O)c3=O)cc2)cc1 [Compound 11957216] | 0.83
COc1ccc2c(c1)c1nc3ccccc3nc1n2Cc1ccc(OC)c(OC)c1 [Compound 2023256] | 1.42
O=C(Nc1nccs1)c1cccc(N2C(=O)c3cccc4c([N+](=O)[O-])ccc(c34)C2=O)c1 [Compound 2254616] | 0.65
Cc1oc(-c2ccc(F)cc2)cc1-c1nn2c(-c3ccoc3C)nnc2s1 [Compound 2145571] | 1.08
COc1cccc(OCc2cc(/C=N/NC(=O)c3nc(Cl)c(Cl)c(N)c3Cl)ccc2OC)c1 [Compound 6881723] | 0.87
CCc1cc(=O)oc2cc(C)c3c(C)coc3c12 [Compound 707842] | 1.18
Cc1[nH]nc2ncc(C(=O)c3cc(Cl)cc(Cl)c3O)cc12 [Compound 2421294] | 0.99
CN(C)c1ccc(NC(=O)Cn2ncn3c(cc4ccccc43)c2=O)cc1 [Compound 3244843] | 1.66
O=c1nc2s/c(=C\c3ccco3)c(=O)n2nc1Cc1ccc(F)cc1 [Compound 1844411] | 0.85
C=CCOC(=O)C(C#N)c1nc2ccccc2nc1N1CCN(Cc2ccc3c(c2)OCO3)CC1 (stereo not drawn) [Compound 660507] | 1.27
CCC1CCCCN1S(=O)(=O)c1ccc(S(=O)(=O)N2CCN(S(=O)(=O)CC)CC2)cc1 (stereo not drawn) [Compound 651007] | 0.91
COc1ccc(C2C(C(C)=O)=C(C)N=c3s/c(=C/c4ccc5c(c4)OCO5)c(=O)n32)cc1 (stereo not drawn) [Compound 5287341] | 0.95
O=C(Cn1c2ccccc2c(=O)c2cc([N+](=O)[O-])ccc21)Nc1ccccc1Cl [Compound 15944880] | 1.00
CCC(C)N1C(=O)/C(=C/c2ccc3c(c2)CCN3CCCCl)C(=O)NC1=S (stereo not drawn) [Compound 6513263] | 1.14
